methodSummary: Inhibition of alpha-L-fucosidase
Active and inactive are the calls of the source. The rule behind the calls is not given here.
measurementType: Activity

> print(dat)
                             moleculesmiles  measuredresult
1  OC[C@H]1NC[C@@H](O[C@@H]2O[C@H](CO)[C@@H](O)[C@H](O)[C@H]2O)[C@@H](O)[C@@H]1O        inactive
2  OC[C@H]1NC[C@@H](O)[C@@H](O[C@@H]2O[C@H](CO)[C@@H](O)[C@H](O)[C@H]2O)[C@@H]1O        inactive
3  OC[C@H]1NC[C@@H](O)[C@@H](O)[C@@H]1O[C@@H]1O[C@H](CO)[C@@H](O)[C@H](O)[C@H]1O        inactive
4  OC[C@H]1NC[C@@H](O[C@H]2O[C@H](CO)[C@H](O)[C@H](O)[C@H]2O)[C@@H](O)[C@@H]1O        inactive
